System Under Test: T1, human APJ receptor (human, UniProt P35414 1-380)
T1 sequence (looked up): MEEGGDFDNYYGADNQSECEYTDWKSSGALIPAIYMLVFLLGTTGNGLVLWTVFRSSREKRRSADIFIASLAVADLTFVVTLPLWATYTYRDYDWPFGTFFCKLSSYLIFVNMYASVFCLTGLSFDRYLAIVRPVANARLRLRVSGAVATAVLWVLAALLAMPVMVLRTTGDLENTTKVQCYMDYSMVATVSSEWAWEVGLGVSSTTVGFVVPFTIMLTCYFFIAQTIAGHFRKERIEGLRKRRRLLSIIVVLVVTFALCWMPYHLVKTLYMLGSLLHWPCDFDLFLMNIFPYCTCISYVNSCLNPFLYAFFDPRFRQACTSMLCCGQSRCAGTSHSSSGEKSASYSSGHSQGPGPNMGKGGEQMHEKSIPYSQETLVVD
Test Name: cell-based or functional assay
Starred links: 1 amine or outer side, 2 acyl side, 3 side chain; linkers in the order of their positions; H or OH if unused. Non-standard residues stand in square brackets, D forms with d. Primed or numbered codes have the meaning given here. *: point of attachment. AC4Abu = α-carboxy-4-aminobutyric acid, O=C(C(CCN[*:1])C(=O)[*:3])[*:2]; Phe(4-Cl) = N[C@@H](Cc1ccc(Cl)cc1)C(=O)O; d(β3hF) = N[C@@H](CC(=O)O)Cc1ccccc1; NMeR = CN[C@@H](CCCNC(=N)N)C(=O)O; Palmitoyl = CCCCCCCCCCCCCCCC(=O)*; Cha = N[C@@H](CC1CCCCC1)C(=O)O; Pip = O=C(O)[C@@H]1CCCCN1; Nle = CCCC[C@H](N)C(=O)O; Pip′ = not defined here; AEEA = NCCOCCOCC(=O)O; Nip = nipecotic acid
Measured Attribute: EC50 Human APJ Receptor (nM)
Provide only the numeric value, understood in nM.

Data point: Palmitoyl-[AC4Abu][AEEA][AEEA][dQ]RP[NMeR][Cha]SHKG[Pip][Nle][Nip][Phe(4-Cl)]-OH [SEQ ID NO: 588] ; EC50 Human APJ Receptor = 1.52

Okay, next one:
Data point: Palmitoyl-[AC4Abu][AEEA][AEEA][dQ]RP[NMeR][Cha]SHKG[Pip′][Nle][d(β3hF)]-OH [SEQ ID NO: 574] ; EC50 Human APJ Receptor = 0.652
